target: DNA primase (UniProt P0ABS7); experiment: relative enzymatic activity vs untreated control (fraction); higher = less inhibition; conditions: 100 µM; incubation time: 2 h at 37 C
Sequence (P0ABS7 whole entry): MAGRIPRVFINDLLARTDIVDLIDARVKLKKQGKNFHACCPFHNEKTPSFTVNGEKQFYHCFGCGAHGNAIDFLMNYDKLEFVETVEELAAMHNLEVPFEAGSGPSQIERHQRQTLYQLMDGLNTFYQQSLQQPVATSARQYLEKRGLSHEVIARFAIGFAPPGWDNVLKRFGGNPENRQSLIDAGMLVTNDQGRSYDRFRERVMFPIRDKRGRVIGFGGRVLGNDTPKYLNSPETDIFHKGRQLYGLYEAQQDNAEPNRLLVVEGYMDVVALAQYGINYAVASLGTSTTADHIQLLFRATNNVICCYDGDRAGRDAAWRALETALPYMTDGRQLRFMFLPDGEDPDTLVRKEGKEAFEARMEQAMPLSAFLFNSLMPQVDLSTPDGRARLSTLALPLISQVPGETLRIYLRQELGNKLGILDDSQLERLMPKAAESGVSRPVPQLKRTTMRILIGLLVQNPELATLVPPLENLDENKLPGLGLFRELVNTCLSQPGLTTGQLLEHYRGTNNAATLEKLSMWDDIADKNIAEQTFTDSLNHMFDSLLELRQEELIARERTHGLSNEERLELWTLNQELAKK
Each entry gets class 0 if its relative enzymatic activity stays under 0.7, and class 1 if its relative enzymatic activity is 0.7 or above.

compound=CCCCCCCCCCCCC[N+](C)(C)Cc1ccccc1.O.[Cl-] group_label="class 0"

Exam item: Test whether the compound "N[C@@H]1CC[C@@H](c2ccc(Cl)c(Cl)c2)c2ccccc21" records relative enzymatic activity of 0.7 or higher.
Marked response: class 1

Exam item: Test whether the compound NCCC(O)C(=O)NC1CC(N)C(OC2OC(CN)C(O)C(O)C2O)C(O)C1OC1OC(CO)C(O)C(N)C1O.O (stereo not given) records relative enzymatic activity of 0.7 or higher.
Marked response: class 1

Exam item: Test whether the compound CON=C1CN(c2nc3c(cc2F)c(=O)c(C(=O)O)cn3C2CC2)CC1CN.CS(=O)(=O)O (stereo not given) records relative enzymatic activity of 0.7 or higher.
Marked response: class 1

Exam item: Test whether the compound "O=C(O)c1c(O)c2c([nH]c1=O)CCCC2" records relative enzymatic activity of 0.7 or higher.
Marked response: class 1
